Numbers sourced from patent US20230374038A1.

- tested.system: CFTR (Homo sapiens, UniProt P13569)
- Sequence (P13569 with tags, fused parts or gaps DEL508-508): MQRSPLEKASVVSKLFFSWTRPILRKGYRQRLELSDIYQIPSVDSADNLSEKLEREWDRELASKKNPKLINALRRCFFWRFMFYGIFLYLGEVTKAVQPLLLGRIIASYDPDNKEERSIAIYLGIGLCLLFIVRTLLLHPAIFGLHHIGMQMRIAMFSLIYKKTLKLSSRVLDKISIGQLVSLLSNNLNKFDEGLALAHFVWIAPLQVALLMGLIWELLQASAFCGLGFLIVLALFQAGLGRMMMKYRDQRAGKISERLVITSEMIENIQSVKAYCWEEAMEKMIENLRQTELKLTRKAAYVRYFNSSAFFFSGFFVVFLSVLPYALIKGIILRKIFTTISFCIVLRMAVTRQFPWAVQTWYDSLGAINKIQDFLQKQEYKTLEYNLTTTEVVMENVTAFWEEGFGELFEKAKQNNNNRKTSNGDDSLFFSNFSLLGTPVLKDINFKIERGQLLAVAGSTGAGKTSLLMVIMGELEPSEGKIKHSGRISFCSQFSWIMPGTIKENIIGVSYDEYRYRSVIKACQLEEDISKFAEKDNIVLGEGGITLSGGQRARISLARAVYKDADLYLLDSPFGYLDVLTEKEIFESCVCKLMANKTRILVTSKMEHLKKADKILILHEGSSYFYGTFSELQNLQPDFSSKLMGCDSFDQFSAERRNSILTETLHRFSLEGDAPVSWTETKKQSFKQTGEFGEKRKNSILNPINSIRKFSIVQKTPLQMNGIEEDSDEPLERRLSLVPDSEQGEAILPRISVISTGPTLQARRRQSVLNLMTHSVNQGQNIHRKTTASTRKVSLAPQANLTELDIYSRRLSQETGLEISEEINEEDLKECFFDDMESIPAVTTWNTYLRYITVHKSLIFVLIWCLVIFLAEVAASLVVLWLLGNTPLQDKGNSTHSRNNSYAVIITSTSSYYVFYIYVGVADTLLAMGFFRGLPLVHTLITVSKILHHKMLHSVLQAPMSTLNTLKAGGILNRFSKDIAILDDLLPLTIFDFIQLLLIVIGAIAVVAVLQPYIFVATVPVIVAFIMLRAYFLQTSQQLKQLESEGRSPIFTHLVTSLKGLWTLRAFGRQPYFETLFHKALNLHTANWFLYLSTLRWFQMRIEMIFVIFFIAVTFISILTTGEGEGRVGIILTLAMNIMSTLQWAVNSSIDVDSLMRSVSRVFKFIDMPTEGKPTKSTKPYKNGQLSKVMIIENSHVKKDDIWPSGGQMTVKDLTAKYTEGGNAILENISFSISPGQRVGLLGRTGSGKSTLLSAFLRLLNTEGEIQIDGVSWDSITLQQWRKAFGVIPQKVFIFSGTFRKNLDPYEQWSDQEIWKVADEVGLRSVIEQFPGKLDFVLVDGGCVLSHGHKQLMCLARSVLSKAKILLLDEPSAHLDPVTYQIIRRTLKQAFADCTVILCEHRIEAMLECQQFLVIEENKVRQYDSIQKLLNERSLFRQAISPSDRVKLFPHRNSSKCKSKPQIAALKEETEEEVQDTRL
- experiment: Membrane Potential Dye, Enteroid Assay A
- Format: cell-based
observation.type: Ent. A Max Activity

Recorded Ent. A Max Activity, per entry:
compound: CCc1c2nc(nc1-c1c(C)cccc1C)NS(=O)(=O)c1cccc(c1)NC(=O)c1cccc(c1)O2 [Compound 4]
tested.system: CFTR (Homo sapiens, UniProt P13569)
obs.value: +++ (+++ is >60%)

compound: CC(C)Oc1cccc(-c2nc3nc(c2C(C)(C)C)OC2CN(Cc4ccccc42)C(=O)c2cccc(c2)S(=O)(=O)N3)c1 (centres unmarked) [Compound 44]
tested.system: CFTR (Homo sapiens, UniProt P13569)
obs.value: + (+ is <30%)

compound: CCc1c2nc(nc1-c1ccccc1)NS(=O)(=O)c1cccc(c1)NC(=O)c1cccc(c1)O2 [Compound 30]
tested.system: CFTR (Homo sapiens, UniProt P13569)
obs.value: + (+ is <30%)

compound: CCc1c2nc(nc1-c1cccc(OCC(C)C)c1)NS(=O)(=O)c1cccc(c1)NC(=O)c1cccc(c1)O2 [Compound 27]
tested.system: CFTR (Homo sapiens, UniProt P13569)
obs.value: + (+ is <30%)

compound: CCOc1ccccc1-c1nc2nc(c1CC)Oc1cccc(c1)C(=O)Nc1cccc(c1)S(=O)(=O)N2 [Compound 24]
tested.system: CFTR (Homo sapiens, UniProt P13569)
obs.value: + (+ is <30%)

compound: CCc1c2nc(nc1-c1ccccc1C1CCC1)NS(=O)(=O)c1cccc(c1)NC(=O)c1cccc(c1)O2 [Compound 1]
tested.system: CFTR (Homo sapiens, UniProt P13569)
obs.value: ++ (++ is 30-60%)

# Ent. A Max Activity (compound: CCc1c2nc(nc1-c1cccc(OC(C)C)c1)NS(=O)(=O)c1cccc(c1)NC(=O)c1cccc(c1)O2 [Compound 28] ) is + (+ is <30%)

Looking up CCc1c2nc(nc1-c1c(C)cccc1OC)NS(=O)(=O)c1cccc(c1)NC(=O)c1cccc(c1)O2 [Compound 6] , I see its Ent. A Max Activity listed as ++ (++ is 30-60%)

Ent. A Max Activity for Cc1ccccc1-c1nc2nc(c1C(F)(F)F)OC1CN(Cc3ccccc31)C(=O)c1cccc(c1)S(=O)(=O)N2 (centres unmarked) [Compound 43] is +++ (+++ is >60%)

Briefly, Ent. A Max Activity measured for Cc1ccccc1-c1nc2nc(c1C(F)(F)F)OCC1CN(CCN1CCC1(C(F)(F)F)CC1)C(=O)c1cccc(c1)S(=O)(=O)N2 (centres unmarked) [Compound 32] : ++ (++ is 30-60%)

Record CCc1c2nc(nc1-c1ccccc1OC(C)C)NS(=O)(=O)c1cccc(c1)NC(=O)c1cccc(c1)O2 [Compound 29] . Reported Ent. A Max Activity: + (+ is <30%)

Ent. A Max Activity measured on Cc1ccccc1-c1nc2nc(c1C(C)(C)C)OC1CN(Cc3ccccc31)C(=O)c1cccc(c1)S(=O)(=O)N2 (centres unmarked) [Compound 39] = ++ (++ is 30-60%)

Data point: CCc1c2nc(nc1-c1ccccc1OC)NS(=O)(=O)c1cccc(c1)NC(=O)c1cccc(c1)O2 [Compound 23] ; Ent. A Max Activity = ++ (++ is 30-60%)

Recorded result, Cc1ncccc1-c1nc2nc(c1C(C)(C)C)OC1CN(Cc3ccccc31)C(=O)c1cccc(c1)S(=O)(=O)N2 (centres unmarked) [Compound 45] , Ent. A Max Activity: + (+ is <30%)

====

- tested.system: CFTR (Homo sapiens, UniProt P13569)
- experiment: Membrane Potential Dye, Enteroid Assay A
- Format: cell-based
observation.type: Ent. A Max Activity

Consider the worked cases shown below.
compound: Cc1ccccc1-c1nc2nc(c1C(F)(F)F)OCC1CN(C)CCN1C(=O)c1cccc(c1)S(=O)(=O)N2 (stereo not drawn)
observation.type: Ent. A Max Activity
obs.value: ++ (++ is 30-60%)

compound: CCc1c2nc(nc1-c1c(C)cccc1C)NS(=O)(=O)c1cccc(c1)C(=O)N(C1CC3(CCN(C(=O)OC(C)(C)C)CC3)C1)[C@H](CC(C)C)CO2
observation.type: Ent. A Max Activity
obs.value: +++ (+++ is >60%)

compound: CC(C)C[C@@H]1COc2nc(nc(-c3ccccc3C(C)C)c2C(F)(F)F)NS(=O)(=O)c2cccc(c2)C(=O)N1
observation.type: Ent. A Max Activity
obs.value: +++ (+++ is >60%)

compound: CCc1c2nc(nc1-c1c(C)cccc1C)NS(=O)(=O)c1cccc(c1)C(=O)NCC(c1ccc(C(C)(C)C)cc1)O2 (stereo not drawn)
observation.type: Ent. A Max Activity
obs.value: +++ (+++ is >60%)

compound: CCc1c2nc(nc1-c1c(C)cccc1C)NS(=O)(=O)c1cccc(c1)C(=O)N[C@H](CC(C)C)CO2
observation.type: Ent. A Max Activity
obs.value: +++ (+++ is >60%)

Field Ent. A Max Activity (entry CCc1c2nc(nc1-c1ccccc1C(C)C)NS(=O)(=O)c1cccc(c1)NC(=O)c1cc(ccc1Cl)O2 ) reads +++ (+++ is >60%)

Ent. A Max Activity for Cc1cccc(C)c1-c1nc2nc(c1OC(C)C)OC[C@@H](CC(C)C)N(C1CC3(CCN(C)CC3)C1)C(=O)c1cccc(c1)S(=O)(=O)N2 is +++ (+++ is >60%)

Consider CCc1c2nc(nc1-c1c(C)ccc(OCCC(C)C)c1C)NS(=O)(=O)c1cccc(c1)NC(=O)c1cccc(c1)O2 . Its measured Ent. A Max Activity is ++ (++ is 30-60%)

====

- tested.system: UniProtKB P13569
- experiment: Membrane Potential Dye, Enteroid Assay B
- Assay type: cell-based
observation.type: Ent. B Max Activity

Sample records with Ent. B Max Activity:
molecule: Cc1cccc(C)c1-c1nc2nc(c1C1=CCOCC1)O[C@H](C)CNC(=O)c1cccc(c1)S(=O)(=O)N2
tested.system: UniProtKB P13569
Ent. B Max Activity: ++ (++ is 30-60%)
--
molecule: Cc1cccc(C)c1-c1nc2nc(c1C)OC(c1ccc(CC3(C(F)(F)F)CC3)cn1)CN(C)C(=O)c1cccc(c1)S(=O)(=O)N2 (stereo not shown) [Compound 204]
tested.system: UniProtKB P13569
Ent. B Max Activity: ++ (++ is 30-60%)
--
molecule: Cc1cccc(C)c1-c1nc2nc(c1-c1ccccc1)OC[C@@H](C)NC(=O)c1cccc(c1)S(=O)(=O)N2
tested.system: UniProtKB P13569
Ent. B Max Activity: ++ (++ is 30-60%)
--
molecule: Cc1cccc(C)c1-c1nc2nc(c1C)OC[C@@H](CC(C)C)N(C1CC3(CC(CO)C3)C1)C(=O)c1cccc(c1)S(=O)(=O)N2 (stereo in doubt) [Compound 67]
tested.system: UniProtKB P13569
Ent. B Max Activity: +++ (+++ is >60%)
--
molecule: Cc1cccc(C)c1-c1nc2nc(c1CN(C)C)OC[C@@H](CC(C)C)N(C1CC3(CC3)C1)C(=O)c1cccc(c1)S(=O)(=O)N2
tested.system: UniProtKB P13569
Ent. B Max Activity: ++ (++ is 30-60%)

Lab note: molecule Cc1ccc(C(F)(F)F)c(C)c1-c1nc2nc(c1C(F)(F)F)OC[C@@H](CC(C)C)NC(=O)c1cccc(c1)S(=O)(=O)N2 tested on UniProtKB P13569; recorded Ent. B Max Activity was +++ (+++ is >60%)

Kindly note: UniProtKB P13569, CCc1c2nc(nc1-c1c(C)cccc1C)NS(=O)(=O)c1cccc(c1)C(=O)N[C@H](CC(C)(C)C)CO2 , Ent. B Max Activity value reported: +++ (+++ is >60%)

Given the molecule CCc1c2nc(nc1-c1c(C)cccc1C)NS(=O)(=O)c1cccc(c1)C(=O)N(C1CC3(CCN(C)CC3)C1)[C@H](CC(C)C)CO2 and test system UniProtKB P13569, the measured Ent. B Max Activity is +++ (+++ is >60%)

Query COc1cccc(-c2c3nc(nc2-c2c(C)cccc2C)NS(=O)(=O)c2cccc(c2)C(=O)NC[C@@H](C)O3)c1 on UniProtKB P13569; Ent. B Max Activity returned: +++ (+++ is >60%)

Case Cc1cccc(C)c1-c1nc2nc(c1C)OC[C@@H](CC1(C(F)(F)F)CC1)N(C1CC3(CCN(C(=O)OC(C)C)CC3)C1)C(=O)c1cccc(c1)S(=O)(=O)N2 , UniProtKB P13569, Ent. B Max Activity recorded as +++ (+++ is >60%)

Form: item COc1c2nc(nc1-c1c(C)cccc1C)NS(=O)(=O)c1cccc(c1)C(=O)N(C1CC3(CC3)C1)[C@H](CC(C)C)CO2 ; test system UniProtKB P13569; Ent. B Max Activity: +++ (+++ is >60%)

Lab entry: UniProtKB P13569 assay, molecule CCc1c2nc(nc1-c1c(C)cccc1C)NS(=O)(=O)c1cccc(c1)C(=O)N(C1CC3(CC3)C1)[C@H](CC(C)C)CO2 , Ent. B Max Activity = +++ (+++ is >60%)
